# pKd per entry
Target: T1, cyno PD-L1 (cyno)
T1 construct: Soluble analyte in BLI
Test: BLI (Octet), antibody on AHC biosensor, cyno PD-L1 as analyte
Scale note: pKd = -log10(concentration in M).

antibody A7 (antibody, V domains shown, Tested as full-length mAb made in CHO cells; also called L7H7) VH: QVQLQESGPGLVKPSETLSLTCTVSGGSISSYYWSWIRQPPGKGLEWIGYIFYSGSTNYNPSLKSRVTISVDTSKNQFSLKLSSVTAADTAVYFCARDNWHDGGVDYWGQGTLVTVSS VL: EIVMTQSPTTLSLSPGERATLSCRASQSVSSSYLSWYQQKPGQAPRLLIYGASTRATGIPARFSGSGSGTDFTLTISSLQPEDFAVYYCQQDYNLRTFGQGTKVEIK | 7.64

Let us examine a further case.
Suppose we examine the binder antibody A16 (antibody, V domains shown, Tested as full-length mAb made in CHO cells; also called L16H16) VH: QVQLVESGGGVVQPGRSLRLSCAASGFTFSSYGMHWVRQAPGKGLEWVAVIWYDGSNKYYADSVKGRFTISRDNSNDTLFLQMNSLRAEDTAVYYCARDFDWFGMDVWGQGTTVTVSS VL: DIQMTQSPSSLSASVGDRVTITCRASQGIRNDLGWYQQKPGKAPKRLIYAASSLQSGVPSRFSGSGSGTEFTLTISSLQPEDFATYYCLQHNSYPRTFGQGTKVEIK ; what pKd value has been reported? 6.27
